- Assay system: HLA-A*0201 (Homo sapiens, UniProt P04439, D140Y/D185E/D98H/E176V/E277Q/G131W/G231S/I119V/I121R/I166T/I218V/L300P/L318F/N151K/N90K/P208A/P217A/Q86G/Q94H/R138H/R169H/T345S)
- Test summary: Peptide binding using T2 cells;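 note: Read-out is peptide-induced stabilization of HLA-A*0201 on the cell surface, reflecting mainly Kon at limiting peptide levels and both Kon and Koff at saturating levels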
- Condition: half maximal binding of wild-type peptide relative to analog
Ends that are not written are not given here.
# note: exactly 3 is not below, so it is condition not met; use condition met for Relative affinity (1/RA) strictly under it

Does the reported Relative affinity (1/RA) of WLSEKIFYV-OH [SSX2 41-49 (K41W, A42L)] stay below 3?
condition not met
